- METHOD_DESCRIPTION: Red blood cell (RBC) hemolysis assay
- Type: cell-based
- EXPERIMENTAL_CONTEXT: pH 7.5, 30 minutes, 37° C.; read-out: Percent Hemolysis
- Description: C. […] RBCs were harvested by centrifuging whole blood for 4 min. They were washed three times with 100 mM dibasic sodium phosphate at the desired pH, and resuspended in the same buffer to yield the initial volume. They were diluted 10 times in the same buffer, and 200 μL of this suspension was used for each tube. This yields 108 RBCs per tube. […] Lysis was determined by measuring the absorbance of the supernatant at 541 nm, reflecting the amount of hemoglobin that had been released into the supernatant. […]
Where no end group is shown, it is not given here.
QUANTITY_KIND: hemolysis (%)
I only need the number, in %, no unit after it.

Lookup: Please give the documented hemolysis of KLLKLLLKLWLKLLKLLLKLL [KL3]
Found: 62

Source listed as patent US20040162235A1.
